details: human gut metagenome, 24 h, 2 µM; also: call rule not given here
assay.metric: Bacterial Biotransformation

Worked examples follow.
[
  {
    "molecule": "CCC(=O)NCC[C@@H]1CCc2ccc3c(c21)CCO3",
    "Bacterial Biotransformation": "Compound metabolized"
  },
  {
    "molecule": "CN1C(=O)CC(C)(c2ccccc2)C1=O (centres undefined) [METHSUXIMIDE]",
    "Bacterial Biotransformation": "Compound NOT metabolized"
  },
  {
    "molecule": "Br.CN(C)CCCC1(c2ccc(F)cc2)OCc2cc(C#N)ccc21 (centres undefined) [CITALOPRAM HYDROBROMIDE]",
    "Bacterial Biotransformation": "Compound metabolized"
  },
  {
    "molecule": "COC(=O)Nc1nc2ccc(C(=O)c3ccccc3)cc2[nH]1",
    "Bacterial Biotransformation": "Compound metabolized"
  },
  {
    "molecule": "CO[C@]12C[C@@H](COC(=O)c3cncc(Br)c3)CN(C)[C@@H]1Cc1cn(C)c3cccc2c13",
    "Bacterial Biotransformation": "Compound metabolized"
  },
  {
    "molecule": "CCCCC(=O)N(Cc1ccc(-c2ccccc2-c2nnn[nH]2)cc1)[C@H](C(=O)O)C(C)C",
    "Bacterial Biotransformation": "Compound metabolized"
  },
  {
    "molecule": "CC(C)NCC(O)COc1ccc(CCOCC2CC2)cc1 (centres undefined)",
    "Bacterial Biotransformation": "Compound NOT metabolized"
  },
  {
    "molecule": "CN1C(C(=O)Nc2ccccn2)=C(O)c2sccc2S1(=O)=O",
    "Bacterial Biotransformation": "Compound NOT metabolized"
  }
]

Attention now shifts to the item below.
response.value for Cc1nc(-c2ccc(OCC(C)C)c(C#N)c2)sc1C(=O)O (field: Bacterial Biotransformation) = Compound metabolized

* * *

test: The drug is tested on WLS-098 corresponding to human gut metagenome with ENA study accession number: PRJEB37062 and ENA sample accession number: ERS12561754 for biotransformation under anaerobic condition. The drug concentrations were measured over 9 timepoints collected between 0 and 24 hours of incubation by liquid-chromatography-coupled mass spectrometry (LC–MS); conditions: 2 µM
assay.metric: Bacterial Biotransformation

Worked examples follow.
[
  {
    "compound": "COc1ccc2c3c1O[C@H]1C[C@@H](O)C=C[C@@]31CCN(C)C2 [GALANTAMINE]",
    "endpoint.value": "Compound metabolized"
  },
  {
    "compound": "CCOC(=O)[C@H](CCc1ccccc1)N[C@H]1CCc2ccccc2N(CC(=O)O)C1=O [BENAZEPRIL]",
    "endpoint.value": "Compound metabolized"
  },
  {
    "compound": "COC1=CC(=O)C[C@@H](C)[C@]12Oc1c(Cl)c(OC)cc(OC)c1C2=O [GRISEOFULVIN]",
    "endpoint.value": "Compound NOT metabolized"
  },
  {
    "compound": "O=C(Nc1ccccc1)OCC(CN1CCCCC1)OC(=O)Nc1ccccc1 (stereo not drawn) [DIPERODON]",
    "endpoint.value": "Compound metabolized"
  },
  {
    "compound": "CN1CCc2cccc3c2[C@H]1Cc1ccc(O)c(O)c1-3 [APOMORPHINE]",
    "endpoint.value": "Compound NOT metabolized"
  },
  {
    "compound": "COc1cc2nc(N(C)CCCNC(=O)C3CCCO3)nc(N)c2cc1OC (stereo not drawn) [ALFUZOSIN]",
    "endpoint.value": "Compound metabolized"
  },
  {
    "compound": "CC(C)OC(=O)C(C)(C)Oc1ccc(C(=O)c2ccc(Cl)cc2)cc1 [FENOFIBRATE]",
    "endpoint.value": "Compound metabolized"
  },
  {
    "compound": "CC[C@@H](CO)NC(=O)[C@@H]1C=C2c3cccc4c3c(cn4C)C[C@H]2N(C)C1.O=C(O)/C=C\\C(=O)O [METHYSERGIDE MALEATE]",
    "endpoint.value": "Compound NOT metabolized"
  },
  {
    "compound": "CCC(=O)NCC[C@@H]1CCc2ccc3c(c21)CCO3 [RAMELTEON]",
    "endpoint.value": "Compound metabolized"
  },
  {
    "compound": "Cc1cn([C@H]2C[C@H](N=[N+]=[N-])[C@@H](CO)O2)c(=O)[nH]c1=O [ZIDOVUDINE]",
    "endpoint.value": "Compound NOT metabolized"
  }
]

response.value for CCCc1nc2c(C)cc(-c3nc4ccccc4n3C)cc2n1Cc1ccc(-c2ccccc2C(=O)O)cc1 (field: Bacterial Biotransformation) = Compound metabolized

response.value for CC(O)(CS(=O)(=O)c1ccc(F)cc1)C(=O)Nc1ccc(C#N)c(C(F)(F)F)c1 (stereo not drawn) [BICALUTAMIDE] (field: Bacterial Biotransformation) = Compound NOT metabolized

response.value for COC(=O)C1=C(C)NC(C)=C(C(=O)OC(C)C)C1c1cccc2nonc12 (stereo not drawn) [ISRADIPINE] (field: Bacterial Biotransformation) = Compound metabolized

response.value for O=C1NCC2(CCN(CCc3ccccc3)CC2)O1 [FENSPIRIDE] (field: Bacterial Biotransformation) = Compound NOT metabolized

* * *

settings: human gut metagenome, 24 h, 2 µM
assay.metric: Bacterial Biotransformation

Worked examples follow.
[
  {
    "compound": "CCc1nc(N)nc(N)c1-c1ccc(Cl)cc1 [PYRIMETHAMINE]",
    "Bacterial Biotransformation": "Compound NOT metabolized"
  },
  {
    "compound": "Fc1ccc([C@@H]2CCNC[C@H]2COc2ccc3c(c2)OCO3)cc1 [PAROXETINE]",
    "Bacterial Biotransformation": "Compound metabolized"
  },
  {
    "compound": "CCN(CC)C(C)CN1c2ccccc2Sc2ccccc21 (centres undefined) [ETHOPROPAZINE]",
    "Bacterial Biotransformation": "Compound metabolized"
  },
  {
    "compound": "CCC1(c2ccc(N)cc2)CCC(=O)NC1=O (centres undefined) [AMINOGLUTETHIMIDE]",
    "Bacterial Biotransformation": "Compound NOT metabolized"
  },
  {
    "compound": "COC(=O)Nc1nc2ccc(C(=O)c3ccccc3)cc2[nH]1 [MEBENDAZOLE]",
    "Bacterial Biotransformation": "Compound metabolized"
  },
  {
    "compound": "COc1cc2c(c(OC)c1OC)-c1ccc(OC)c(=O)cc1[C@@H](NC(C)=O)CC2 [COLCHICINE]",
    "Bacterial Biotransformation": "Compound metabolized"
  },
  {
    "compound": "O=C(Nc1ccccc1)OCC(CN1CCCCC1)OC(=O)Nc1ccccc1 (centres undefined) [DIPERODON]",
    "Bacterial Biotransformation": "Compound NOT metabolized"
  },
  {
    "compound": "CC[C@@H](CO)NC(=O)[C@@H]1C=C2c3cccc4c3c(cn4C)C[C@H]2N(C)C1.O=C(O)/C=C\\C(=O)O [METHYSERGIDE MALEATE]",
    "Bacterial Biotransformation": "Compound NOT metabolized"
  }
]

Attention now shifts to the item below.
response.value for CCN(CC)CCOCCOC(=O)C1(c2ccccc2)CCCC1.O=C(O)CC(O)(CC(=O)O)C(=O)O [CARBETAPENTANE CITRATE] (field: Bacterial Biotransformation) = Compound metabolized

* * *

conditions: human gut metagenome, 24 h, 2 µM

[
  {
    "compound": "Clc1ccc(Cn2c(CN3CCCC3)nc3ccccc32)cc1 [CLEMIZOLE]",
    "Bacterial Biotransformation": "Compound NOT metabolized"
  },
  {
    "compound": "CC(=O)OCC(=O)[C@@]12N=C(C)O[C@@H]1C[C@H]1[C@@H]3CCC4=CC(=O)C=C[C@]4(C)[C@H]3[C@@H](O)C[C@@]12C [DEFLAZACORT]",
    "Bacterial Biotransformation": "Compound NOT metabolized"
  },
  {
    "compound": "Cc1ccc(S(=O)(=O)NC(=O)NN2CCCCCC2)cc1 [TOLAZAMIDE]",
    "Bacterial Biotransformation": "Compound NOT metabolized"
  }
]

* * *

details: human gut metagenome, 24 h, 2 µM
assay.metric: Bacterial Biotransformation

[
  {
    "compound": "Cc1nc2n(c(=O)c1CCN1CCC(c3noc4cc(F)ccc34)CC1)CCCC2O (stereo not drawn)",
    "Bacterial Biotransformation": "Compound metabolized"
  },
  {
    "compound": "C=CCc1ccccc1OCC(O)CNC(C)C (stereo not drawn)",
    "Bacterial Biotransformation": "Compound metabolized"
  },
  {
    "compound": "CCCC1O[C@@H]2C[C@H]3[C@@H]4CCC5=CC(=O)C=C[C@]5(C)[C@H]4[C@@H](O)C[C@]3(C)[C@]2(C(=O)CO)O1 (stereo partly drawn) [BUDESONIDE]",
    "Bacterial Biotransformation": "Compound metabolized"
  },
  {
    "compound": "CN1CCN(CC/C=C2/c3ccccc3Sc3ccc(S(=O)(=O)N(C)C)cc32)CC1",
    "Bacterial Biotransformation": "Compound NOT metabolized"
  },
  {
    "compound": "Clc1ccc(Cn2c(CN3CCCC3)nc3ccccc32)cc1",
    "Bacterial Biotransformation": "Compound NOT metabolized"
  }
]

response.value for CC(C)OC(=O)C(C)(C)Oc1ccc(C(=O)c2ccc(Cl)cc2)cc1 [FENOFIBRATE] (field: Bacterial Biotransformation) = Compound NOT metabolized

response.value for C#C[C@]1(O)CC[C@H]2[C@@H]3CCC4=Cc5oncc5C[C@]4(C)[C@H]3CC[C@@]21C (field: Bacterial Biotransformation) = Compound metabolized
